From: PubChem BioAssay (NCATS)

- assay_method_text: Quantitative High-Throughput drug screen in 47 multiple myeloma cell lines against the NCATS MIPE library collection: XG6_PLB cell viability assay (AID 1919865); further: nearly all actives have a fitted effect of over 40% in size
- experimental_context: XG6 myeloma viability, CellTiter-Glo ATP luminescence, 48 h; series mostly up to 45.8 µM
Records with an inconclusive call do not appear. Calls of active or inactive are those of the source. The call rests on the fitted dose curve; in most records, active means well fitted cell-killing curve with a large enough effect; inconclusive means small, poorly fitted or top-dose-only effect, or effect the other way; inactive means no such curve, though single readings can be large or run the other way.
Your answer must be one of the following: active, inactive

1. CCC(C)SSc1ncc[nH]1 (stereo unspecified); active
2. CCCCC[C@H](O)C=C[C@H]1[C@H](O)CC(=O)[C@H]1CC=CCCCC(=O)O; active
3. COC(=O)[C@H](c1ccccc1Cl)N1CCc2sccc2C1; inactive
4. Cc1ccc(C2=Nc3ccc(Cl)cc3OC2)cc1; active
5. CC[C@H](C)C(=O)O[C@H]1C[C@H](O)C=C2C=C[C@H](C)[C@H](CC[C@@H](O)C[C@@H](O)CC(=O)O)[C@H]21; inactive

Hello, I am checking results. What call was entered for O=C1NC(=O)C(c2cnc3ccccn23)=C1c1cn2c3c(cccc13)CN(C(=O)N1CCOCC1)CC2 ?
active

Record lookup: outcome of this test for COC1CCC(C(=O)c2ccc3nc4c(cc3c2)CCCO4)CC1 (stereo unspecified) ?
active

Any idea what this test logged for O=C(c1ccc(C=Cc2n[nH]c3ccccc23)cc1)N1CCNCC1 ?
active
